src = paper PMC8582824

Target: DDX3X helicase activity (Homo sapiens)
Construct: Recombinant his-tagged human full length DDX3X; His tag
Sequence (O00571 whole entry): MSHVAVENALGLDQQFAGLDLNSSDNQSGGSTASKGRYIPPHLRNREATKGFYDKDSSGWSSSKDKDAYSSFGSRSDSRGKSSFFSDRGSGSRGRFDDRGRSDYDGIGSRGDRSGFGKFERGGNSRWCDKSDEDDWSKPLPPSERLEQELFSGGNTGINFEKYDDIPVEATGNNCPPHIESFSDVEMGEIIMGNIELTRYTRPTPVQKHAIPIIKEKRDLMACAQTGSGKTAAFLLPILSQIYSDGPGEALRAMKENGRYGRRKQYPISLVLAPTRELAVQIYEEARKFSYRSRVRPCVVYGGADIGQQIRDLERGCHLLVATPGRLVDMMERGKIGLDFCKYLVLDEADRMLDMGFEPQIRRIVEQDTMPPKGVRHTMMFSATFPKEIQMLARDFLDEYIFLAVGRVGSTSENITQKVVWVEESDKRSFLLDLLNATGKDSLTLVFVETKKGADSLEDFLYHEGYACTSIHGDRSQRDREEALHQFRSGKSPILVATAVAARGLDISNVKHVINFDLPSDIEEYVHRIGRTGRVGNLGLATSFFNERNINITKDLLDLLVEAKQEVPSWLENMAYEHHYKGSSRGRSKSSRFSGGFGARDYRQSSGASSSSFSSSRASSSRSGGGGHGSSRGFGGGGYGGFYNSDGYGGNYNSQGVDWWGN
Experiment: FRET-based DDX3X helicase assay
Details: FRET helicase assay, recombinant DDX3X; read-out: IC50 ± SD, DDX3X anti-enzymatic (helicase) activity
reported_property: IC50 (µM)

molecule	measure_unit	IC50
CCCCc1nnc(-c2ccc(NC(=O)Nc3ccccc3C(F)(F)F)cc2)s1 [Compound 8]	µM	50
CCCCc1cn(-c2ccc(NC(=O)Nc3ccccc3C)cc2)nn1 [Compound 1, reference compound]	µM	0.3

(A) CC(C)CCc1cn(-c2ccc(NC(=O)Nc3ccccc3C(F)(F)F)cn2)nn1 [Compound 9]
(B) CCCCc1nnc(-c2ccc(NC(=O)Nc3ccccc3C(F)(F)F)cc2)[nH]1 [Compound 4]
(C) CCCCc1cn(-c2ccc(NC(=O)Nc3ccccc3C(F)(F)F)cc2)nn1 [BA103]
(D) CC(C)CCc1cn(-c2ccc(NC(=O)Nc3cccc4cnccc34)cn2)nn1 [Compound 10]
# ascending order, key=IC50 Show the ranking through the labels, in the order asked for.
B, D, C, A

====

Test system: U251 cells
Assay: MTS cytotoxicity assay, U251 cells
Format: cell-based
Settings: U251, 10 uM, 72 h
The reader will find reported mean absorbance at 490 nm (MTS) values listed item by item below.

Below are worked cases with known answers.
molecule	mean absorbance at 490 nm (MTS)
CCCCn1nnc(-c2ccc(NC(=O)Nc3ccccc3C(F)(F)F)cc2)n1	1,348
CC(C)CCc1cn(-c2ccc(NC(=O)Nc3cccc4cnccc34)cn2)nn1	1,667
CCCCc1cn(-c2ccc(NC(=O)Nc3ccccc3C)cc2)nn1 [Compound 1, reference compound]	1,107

Which mean absorbance at 490 nm (MTS) value belongs to CCCCc1nnc(-c2ccc(NC(=O)Nc3ccccc3C(F)(F)F)cc2)o1 ?
0,593

Param item = CCCCc1nnc(-c2ccc(NC(=O)Nc3ccccc3C(F)(F)F)cc2)[nH]1 ; retrieve measured mean absorbance at 490 nm (MTS).
1,482

Report mean absorbance at 490 nm (MTS) for CCCCc1nnc(-c2ccc(NC(=O)Nc3ccccc3C(F)(F)F)cc2)s1 please.
1,806

Consider the molecule CCCCc1cn(-c2ccc(NC(=O)Nc3ccccc3C(F)(F)F)cc2)nn1 and give its measured mean absorbance at 490 nm (MTS).
0,842

====

Assay: PK and biodistribution in BALB/c mice
Format: in vivo
Conditions: BALB/c, mouse, plasma, ip; single dose 50 mg/kg i.p.
reported_property: CL/F (mL/min/kg)
API: value field is a number in mL/min/kg; no unit string.

Look at this molecule and give its reported CL/F. CCCCc1cn(-c2ccc(NC(=O)Nc3ccccc3C(F)(F)F)cc2)nn1
100

====

Assay: PK and biodistribution in BALB/c mice
Assay type: in vivo
Conditions: BALB/c, mouse, plasma, ip; single dose 50 mg/kg i.p.; read-out: Vz/F_obs
reported_property: Vd/F (L/kg)
Please state the figure in L/kg; there is no need to write the unit.

State the recorded Vd/F for this entry: CCCCc1cn(-c2ccc(NC(=O)Nc3ccccc3C(F)(F)F)cc2)nn1
11.7

====

Experiment: Parallel artificial membrane permeability assay (PAMPA)
Format: in vitro ADME
Conditions: pH 7.4, read-out: AppP (apparent permeability)
reported_property: Papp at 5 h, 0.5 mM (×10⁻⁶ cm/s)

smiles_string	reported_property	measure_unit	observed_result
CCCCc1nnc(-c2ccc(NC(=O)Nc3ccccc3C(F)(F)F)cc2)o1	Papp at 5 h, 0.5 mM	×10⁻⁶ cm/s	9.75
CCCCc1cn(-c2ccc(NC(=O)Nc3ccccc3C(F)(F)F)cc2)nn1	Papp at 5 h, 0.5 mM	×10⁻⁶ cm/s	7.47

(A) CCCCn1nnc(-c2ccc(NC(=O)Nc3ccccc3C(F)(F)F)cc2)n1
(B) CC(C)CCc1cn(-c2ccc(NC(=O)Nc3cccc4cnccc34)cn2)nn1
Which numeric Papp at 5 h, 0.5 mM is bigger, that of A or that of B ? Return value: the label identifying the chosen record.
A

====

Molecular target: DDX1 (Homo sapiens)
Sequence (Q92499 whole entry): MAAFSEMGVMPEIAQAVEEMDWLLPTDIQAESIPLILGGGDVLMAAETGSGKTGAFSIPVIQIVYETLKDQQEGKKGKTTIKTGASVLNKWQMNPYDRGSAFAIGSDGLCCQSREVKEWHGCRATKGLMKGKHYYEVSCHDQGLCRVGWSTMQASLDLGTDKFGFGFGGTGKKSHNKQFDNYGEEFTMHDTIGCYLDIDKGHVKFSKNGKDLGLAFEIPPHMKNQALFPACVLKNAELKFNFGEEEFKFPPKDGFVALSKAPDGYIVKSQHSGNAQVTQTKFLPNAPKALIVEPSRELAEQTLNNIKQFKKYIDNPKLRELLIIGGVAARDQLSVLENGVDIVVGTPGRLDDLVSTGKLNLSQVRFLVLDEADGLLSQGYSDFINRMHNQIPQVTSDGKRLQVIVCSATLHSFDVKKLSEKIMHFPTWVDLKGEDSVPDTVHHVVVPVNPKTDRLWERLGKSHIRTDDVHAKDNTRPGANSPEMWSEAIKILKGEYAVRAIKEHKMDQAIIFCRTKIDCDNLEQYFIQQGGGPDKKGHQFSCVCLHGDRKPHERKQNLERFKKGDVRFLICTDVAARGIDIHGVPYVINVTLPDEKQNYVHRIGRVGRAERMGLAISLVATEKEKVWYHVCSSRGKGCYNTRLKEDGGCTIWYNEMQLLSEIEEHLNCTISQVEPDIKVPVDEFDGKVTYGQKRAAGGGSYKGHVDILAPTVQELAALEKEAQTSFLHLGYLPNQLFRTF
Test: DDX1 helicase activity inhibition
Format: biochemical
reported_property: SI (Selectivity Index)

Sample answers from the record:
compound	observed_result
CCCCc1cn(-c2ccc(NC(=O)Nc3ccccc3C(F)(F)F)cc2)nn1	>250
CCCCc1nnc(-c2ccc(NC(=O)Nc3ccccc3C(F)(F)F)cc2)[nH]1	418
CC(C)CCc1cn(-c2ccc(NC(=O)Nc3cccc4cnccc34)cn2)nn1	>1000

// moving on: another record for SI (Selectivity Index)
Which SI (Selectivity Index) value belongs to CCCCc1cn(-c2ccc(NC(=O)Nc3ccccc3C)cc2)nn1 [Compound 1, reference compound] ?
>666

====

Experiment: PK and biodistribution in BALB/c mice
Type: in vivo
Conditions: BALB/c, mouse, ip; plasma, single dose 50 mg/kg i.p.
reported_property: Cmax (ng/mL)
Output spec: scalar in ng/mL, unitless text.

What Cmax value was documented for this molecule, CCCCc1cn(-c2ccc(NC(=O)Nc3ccccc3C(F)(F)F)cc2)nn1 [BA103] ?
18200

====

Assay: Parallel artificial membrane permeability assay (PAMPA)
Assay type: in vitro ADME
reported_property: AppP (apparent permeability)

Quick one: AppP (apparent permeability) of CCCCc1cn(-c2ccc(NC(=O)Nc3ccccc3C)cc2)nn1 [Compound 1, reference compound] ?
2.86 ×10⁻⁶ cm/s

====

Assay: PK and biodistribution in BALB/c mice
Format: in vivo
Settings: BALB/c, mouse, plasma, ip, 50 mg/kg, single dose 50 mg/kg i.p.; read-out: half time (t1/2) of elimination from plasma (converted)
reported_property: half-life

Quick one: half-life for CCCCc1cn(-c2ccc(NC(=O)Nc3ccccc3C(F)(F)F)cc2)nn1 ?
~5 h

====

Measured solubility at 24 h, listed per entry for reference.
Assay: Water solubility assay
Type: physicochemical
Conditions: 27 °C, thermodynamic from solid, read-out: LogS (aqueous solubility) (converted)

smiles_string	reported_property	observed_result
CCCCn1nnc(-c2ccc(NC(=O)Nc3ccccc3C(F)(F)F)cc2)n1	solubility at 24 h	< 0.0251 µM
CC(C)CCc1cn(-c2ccc(NC(=O)Nc3cccc4cnccc34)cn2)nn1	solubility at 24 h	< 0.0363 µM
CCCCc1nnc(-c2ccc(NC(=O)Nc3ccccc3C(F)(F)F)cc2)[nH]1	solubility at 24 h	0.275 µM

Please report the recorded solubility at 24 h for CCCCc1nnc(-c2ccc(NC(=O)Nc3ccccc3C(F)(F)F)cc2)o1 .
< 0.0251 µM

====

Assay: Parallel artificial membrane permeability assay (PAMPA)
Type: in vitro ADME
reported_property: Memb. Ret. % (membrane retention) (%)

compound	measure_unit	Memb. Ret. % (membrane retention)
CCCCc1nnc(-c2ccc(NC(=O)Nc3ccccc3C(F)(F)F)cc2)[nH]1	%	2.3
CCCCc1cn(-c2ccc(NC(=O)Nc3ccccc3C(F)(F)F)cc2)nn1	%	23.9
CCCCc1cn(-c2ccc(NC(=O)Nc3ccccc3C)cc2)nn1 [Compound 1, reference compound]	%	19.1
CCCCc1nnc(-c2ccc(NC(=O)Nc3ccccc3C(F)(F)F)cc2)o1	%	10.3

(I) CC(C)CCc1cn(-c2ccc(NC(=O)Nc3cccc4cnccc34)cn2)nn1
(II) CCCCn1nnc(-c2ccc(NC(=O)Nc3ccccc3C(F)(F)F)cc2)n1
In terms of reported Memb. Ret. % (membrane retention), does I or II have the smaller number? Refer to your chosen entry by its label in the reply.
I

====

Test system: U87 cells
Test: MTS cytotoxicity assay, U87 cells
Type: cell-based
Conditions: U87, 100 uM, 72 h
Protocol: For CellTiter 96® Aqueous One Solution Cell Proliferation Assay (MTS) (Promega, Madison, WI, USA), cells were seeded at 5 × 10^3 per well in 96-well plates in quadruplicate together a control with no cells to evaluate the background. […] After 3 h at 37 °C in a humidified, 5% CO2 atmosphere, the absorbance at 492 nm was recorded using an EZREAD400 (Biochrom, Cambridge, United Kingdom) plate reader. […] Table S1: Raw data of optical absorbance at 490 nm from MTS assay in U87 and U251 cells. […]
reported_property: mean absorbance at 490 nm (MTS)

Some compounds with recorded mean absorbance at 490 nm (MTS):
compound	assay_system	mean absorbance at 490 nm (MTS)
CCCCc1nnc(-c2ccc(NC(=O)Nc3ccccc3C(F)(F)F)cc2)s1 [Compound 8]	U87 cells	1,054
CCCCc1cn(-c2ccc(NC(=O)Nc3ccccc3C(F)(F)F)cc2)nn1 [BA103]	U87 cells	0,566
CCCCc1nnc(-c2ccc(NC(=O)Nc3ccccc3C(F)(F)F)cc2)o1 [Compound 3]	U87 cells	0,568
CCCCn1nnc(-c2ccc(NC(=O)Nc3ccccc3C(F)(F)F)cc2)n1 [Compound 6]	U87 cells	0,540
CCCCc1cn(-c2ccc(NC(=O)Nc3ccccc3C)cc2)nn1 [Compound 1, reference compound]	U87 cells	0,465

What value of mean absorbance at 490 nm (MTS) has been recorded for this entry: CCCCc1nnc(-c2ccc(NC(=O)Nc3ccccc3C(F)(F)F)cc2)[nH]1 [Compound 4]
0,162

For the compound CC(C)CCc1cn(-c2ccc(NC(=O)Nc3cccc4cnccc34)cn2)nn1 [Compound 10] , what mean absorbance at 490 nm (MTS) is on record?
0,467
